system tested: HLA-A*11:01
run description: IEDB peptide-MHC binding, purified MHC/competitive/fluorescence; filed as Kd, often an IC50 or EC50 that approximates it; bounds were set here for any values at or beyond the usual limits of such assays
measurement conditions: source organism: Influenza A virus (A/swine/Scotland/410440/94(H1N2))
endpoint name: pKd
The quantity pKd is defined as the negative base-10 logarithm of the molar concentration.

Query string: So what's the measured pKd for this one? `KTYFEKVERLK`
Result string: 7.54

----------
system tested: HLA-A*01:01
run description: IEDB peptide-MHC binding, purified MHC/competitive/radioactivity; filed as Kd, often an IC50 or EC50 that approximates it; bounds were set here for any values at or beyond the usual limits of such assays
measurement conditions: source organism: SARS coronavirus Tor2
endpoint name: pKd
The quantity pKd is defined as the negative base-10 logarithm of the molar concentration.

// below: answered sequences
{"sequence code": "FIDTIKSLDY", "system tested": "HLA-A*01:01", "pKd": 6.34}
{"sequence code": "ESVKTQFNY", "system tested": "HLA-A*01:01", "pKd": 5.58}
{"sequence code": "FWITAIYVF", "system tested": "HLA-A*01:01", "pKd": 6.20}
{"sequence code": "LMANLAPHL", "system tested": "HLA-A*01:01", "pKd": 5.22}
{"sequence code": "ASEFSSLPSY", "system tested": "HLA-A*01:01", "pKd": 7.85}
{"sequence code": "MWLSYFVASF", "system tested": "HLA-A*01:01", "pKd": 5.94}

Query string: So what's the measured pKd for this one? `GLAAEWVLAY`
Result string: 6.33

Query string: So what's the measured pKd for this one? `LTALRLCAY`
Result string: 8.10

Query string: So what's the measured pKd for this one? `LYKLMGHFSW`
Result string: 4.74

Query string: So what's the measured pKd for this one? `STSQKSIVAY`
Result string: 6.27

----------
system tested: HLA-B*14:02
run description: IEDB peptide-MHC binding, purified MHC/direct/fluorescence; filed as Kd, often an IC50 or EC50 that approximates it; bounds were set here for any values at or beyond the usual limits of such assays
measurement conditions: source organism: Homo sapiens
endpoint name: pKd
The quantity pKd is defined as the negative base-10 logarithm of the molar concentration.

// below: answered sequences
{"sequence code": "VSPLHRVL", "pKd": 7.05}
{"sequence code": "LQVAHEEI", "pKd": 6.28}

Now look at this one.
Query string: So what's the measured pKd for this one? `NQIIHRDL`
Result string: 6.89

----------
Entries and their measured pKd follow.
system tested: HLA-B*15:03
run description: IEDB peptide-MHC binding, purified MHC/competitive/radioactivity; filed as Kd, often an IC50 or EC50 that approximates it; bounds were set here for any values at or beyond the usual limits of such assays
measurement conditions: source organism: Vaccinia virus WR
The quantity pKd is defined as the negative base-10 logarithm of the molar concentration.

{"sequence code": "ALVFGRRLF", "value reported": 5.95}
{"sequence code": "KKVCFVNKL", "value reported": 8.35}

Query string: So what's the measured pKd for this one? `LKTTFVHPF`
Result string: 8.88

Query string: So what's the measured pKd for this one? `MSSSQDLSF`
Result string: 6.97

Query string: So what's the measured pKd for this one? `LEVRFGNDV`
Result string: 5.87

Query string: So what's the measured pKd for this one? `KIFFRPTTI`
Result string: 5.58

Query string: So what's the measured pKd for this one? `LASVALNMF`
Result string: 6.39

Query string: So what's the measured pKd for this one? `KKYNVRYVF`
Result string: 9.00

Query string: So what's the measured pKd for this one? `FIFLKKNEL`
Result string: 4.73

Query string: So what's the measured pKd for this one? `LQAKSGSSL`
Result string: 9.49

Query string: So what's the measured pKd for this one? `LRFLEKTSF`
Result string: 8.65

Query string: So what's the measured pKd for this one? `LMSEETIDF`
Result string: 7.94

Query string: So what's the measured pKd for this one? `FLRLSANLF`
Result string: 9.92

----------
system tested: HLA-B*53:01
run description: IEDB peptide-MHC binding, purified MHC/competitive/radioactivity; filed as Kd, often an IC50 or EC50 that approximates it; bounds were set here for any values at or beyond the usual limits of such assays
measurement conditions: source organism: Vaccinia virus Copenhagen
pKd: −log10 of the molar value.
endpoint name: pKd

Query string: So what's the measured pKd for this one? `FLTSVINRV`
Result string: ≤ 4.21

----------
Entries and their measured IC50 follow.
system tested: HLA-A*02:01
run description: IEDB peptide-MHC binding, purified MHC/competitive/fluorescence; bounds were set here for any values at or beyond the usual limits of such assays
measurement conditions: source organism: Zaire ebolavirus

// below: answered sequences
{"sequence code": "SAMVQVHSQ", "system tested": "HLA-A*02:01", "value reported": "≥ 609 µM"}
{"sequence code": "TSSDPGTNT", "system tested": "HLA-A*02:01", "value reported": "≥ 251 µM"}
{"sequence code": "HPLARTAKV", "system tested": "HLA-A*02:01", "value reported": "≥ 113 µM"}
{"sequence code": "KHGEYAPFA", "system tested": "HLA-A*02:01", "value reported": "28.3 µM"}

Query string: So what's the measured IC50 for this one? `KILMNFHQK`
Result string: ≥ 95.4 µM

----------
system tested: HLA-A*02:01
run description: IEDB peptide-MHC binding, purified MHC/competitive/fluorescence; filed as Kd, often an IC50 or EC50 that approximates it; bounds were set here for any values at or beyond the usual limits of such assays
measurement conditions: source organism: Vibrio cholerae
endpoint name: Kd

Query string: Test system HLA-A*02:01; read-out Kd; what value for `TRAPAPFPL` ?
Result string: ≥ 20 µM

----------
system tested: HLA-A*26:01
run description: IEDB peptide-MHC binding, purified MHC/competitive/fluorescence; filed as Kd, often an IC50 or EC50 that approximates it; bounds were set here for any values at or beyond the usual limits of such assays
measurement conditions: source organism: Bacillus anthracis str. A0488
pKd: −log10 of the molar value.
endpoint name: pKd

Query string: So what's the measured pKd for this one? `KLWASFFQG`
Result string: ≤ 4.70

----------
system tested: HLA-A*03:01
run description: IEDB peptide-MHC binding, purified MHC/competitive/radioactivity; filed as Kd, often an IC50 or EC50 that approximates it; bounds were set here for any values at or beyond the usual limits of such assays
measurement conditions: source organism: Vaccinia virus Copenhagen
endpoint name: Kd (nM)
Output spec: scalar in nM, unitless text.

Query string: So what's the measured Kd for this one? `GLACYRFVK`
Result string: 22.2

----------
system tested: HLA-B*08:01
run description: IEDB peptide-MHC binding, purified MHC/direct/fluorescence; filed as Kd, often an IC50 or EC50 that approximates it; bounds were set here for any values at or beyond the usual limits of such assays
measurement conditions: source organism: SARS-CoV1
endpoint name: Kd (µM)
Output spec: scalar in µM, unitless text.

Query string: So what's the measured Kd for this one? `FRYMNSQGL`
Result string: 7.93

----------
system tested: HLA-A*24:03
run description: IEDB peptide-MHC binding, purified MHC/direct/fluorescence; filed as Kd, often an IC50 or EC50 that approximates it; bounds were set here for any values at or beyond the usual limits of such assays
measurement conditions: source organism: Reston ebolavirus
pKd: −log10 of the molar value.
endpoint name: pKd

Query string: Test system HLA-A*24:03; read-out pKd; what value for `RRELSKEKL` ?
Result string: ≤ 4.70

----------
system tested: HLA-B*46:01
run description: IEDB peptide-MHC binding, purified MHC/competitive/fluorescence; filed as Kd, often an IC50 or EC50 that approximates it; bounds were set here for any values at or beyond the usual limits of such assays
measurement conditions: source organism: Canarypox virus
pKd: −log10 of the molar value.
endpoint name: pKd

Query string: Test system HLA-B*46:01; read-out pKd; what value for `YMMDGNECP` ?
Result string: ≤ 4.70

----------
system tested: HLA-B*39:01
run description: IEDB peptide-MHC binding, purified MHC/direct/fluorescence; filed as Kd, often an IC50 or EC50 that approximates it; bounds were set here for any values at or beyond the usual limits of such assays
measurement conditions: source organism: Toxoplasma gondii
endpoint name: Kd

Query string: So what's the measured Kd for this one? `LPPVVPPLI`
Result string: ≥ 20 µM

----------
system tested: HLA-A*29:02
run description: IEDB peptide-MHC binding, purified MHC/competitive/fluorescence; filed as Kd, often an IC50 or EC50 that approximates it; bounds were set here for any values at or beyond the usual limits of such assays
measurement conditions: source organism: Vibrio parahaemolyticus K5030
endpoint name: Kd

Query string: Test system HLA-A*29:02; read-out Kd; what value for `AGGWVLWKV` ?
Result string: ≥ 20 µM
